Listing: metabolised at 2 h of selected compounds
- protocol text: Drug degradation in 100% mouse serum after 120 mins
- Type: ADME, cell-free
- conditions used: read-out: Drug degradation

[
  {
    "compound structure": "Cc1ccccc1NC(=O)Nc1ccc(CNC(=O)[C@H]2CCN(C(=O)[C@H](CC(=O)O)NC(=O)Cc3ccccc3)C2)cc1",
    "op": "=",
    "metabolised at 2 h [%]": 10
  },
  {
    "compound structure": "Cc1ccccc1NC(=O)Nc1ccc(CNC(=O)[C@H]2CCN(C(=O)C[C@H](NC(=O)Cc3ccccc3)C(=O)O)C2)cc1",
    "op": "<",
    "metabolised at 2 h [%]": 5
  }
]

----------
- target desc: Integrin alpha-4/beta-1 (Homo sapiens, UniProt P05556+P13612)
- Sequence (P05556 whole entry): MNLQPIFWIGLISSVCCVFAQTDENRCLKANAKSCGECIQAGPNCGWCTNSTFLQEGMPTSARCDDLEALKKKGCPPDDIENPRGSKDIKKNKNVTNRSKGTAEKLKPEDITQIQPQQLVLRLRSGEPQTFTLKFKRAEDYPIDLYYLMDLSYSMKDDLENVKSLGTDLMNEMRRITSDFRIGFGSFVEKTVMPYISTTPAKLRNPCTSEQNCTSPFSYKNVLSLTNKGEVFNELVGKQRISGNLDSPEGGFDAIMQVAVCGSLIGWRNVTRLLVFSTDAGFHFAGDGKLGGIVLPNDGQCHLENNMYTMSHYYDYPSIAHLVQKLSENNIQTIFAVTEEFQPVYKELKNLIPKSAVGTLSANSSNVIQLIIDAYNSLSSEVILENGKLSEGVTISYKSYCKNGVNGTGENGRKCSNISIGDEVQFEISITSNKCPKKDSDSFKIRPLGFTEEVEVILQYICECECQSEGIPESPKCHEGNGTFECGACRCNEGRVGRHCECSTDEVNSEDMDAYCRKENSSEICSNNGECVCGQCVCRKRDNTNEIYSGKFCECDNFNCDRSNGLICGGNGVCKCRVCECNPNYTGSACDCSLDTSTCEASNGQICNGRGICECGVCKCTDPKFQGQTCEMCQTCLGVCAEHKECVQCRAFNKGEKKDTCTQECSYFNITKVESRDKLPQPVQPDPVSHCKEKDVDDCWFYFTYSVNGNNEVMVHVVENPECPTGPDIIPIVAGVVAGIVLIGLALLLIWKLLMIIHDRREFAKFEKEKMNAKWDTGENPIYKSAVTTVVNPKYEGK
- Sequence (P13612 whole entry): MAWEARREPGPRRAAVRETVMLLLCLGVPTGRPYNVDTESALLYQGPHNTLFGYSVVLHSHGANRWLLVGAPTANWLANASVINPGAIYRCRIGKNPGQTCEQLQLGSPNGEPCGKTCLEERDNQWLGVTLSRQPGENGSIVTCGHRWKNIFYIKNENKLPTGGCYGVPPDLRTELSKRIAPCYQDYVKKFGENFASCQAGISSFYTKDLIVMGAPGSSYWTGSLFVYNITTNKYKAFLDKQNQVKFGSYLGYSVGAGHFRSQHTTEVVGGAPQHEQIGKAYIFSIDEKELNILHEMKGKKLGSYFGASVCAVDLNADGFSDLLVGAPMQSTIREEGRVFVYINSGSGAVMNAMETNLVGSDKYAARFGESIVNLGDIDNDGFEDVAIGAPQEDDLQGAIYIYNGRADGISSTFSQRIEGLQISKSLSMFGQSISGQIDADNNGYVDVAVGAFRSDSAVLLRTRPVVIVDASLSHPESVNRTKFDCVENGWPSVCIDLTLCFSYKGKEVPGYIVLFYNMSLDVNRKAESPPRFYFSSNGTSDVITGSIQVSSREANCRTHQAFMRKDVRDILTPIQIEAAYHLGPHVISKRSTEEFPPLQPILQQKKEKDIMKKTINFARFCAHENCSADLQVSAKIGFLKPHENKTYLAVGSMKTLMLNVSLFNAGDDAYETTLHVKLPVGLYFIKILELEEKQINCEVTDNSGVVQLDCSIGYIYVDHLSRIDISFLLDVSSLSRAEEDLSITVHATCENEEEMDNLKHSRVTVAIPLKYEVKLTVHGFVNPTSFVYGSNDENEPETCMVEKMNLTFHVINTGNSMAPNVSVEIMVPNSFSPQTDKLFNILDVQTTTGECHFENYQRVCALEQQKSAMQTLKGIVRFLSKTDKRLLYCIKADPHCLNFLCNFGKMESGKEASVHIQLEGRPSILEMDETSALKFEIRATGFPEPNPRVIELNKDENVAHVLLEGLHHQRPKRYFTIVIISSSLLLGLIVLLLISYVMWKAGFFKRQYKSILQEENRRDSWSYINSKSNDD
- protocol text: Inhibition of human alpha4beta1 integrin expressed in human Jurkat cells assessed as inhibition of cell adhesion to VCAM-1
- Type: cell-based
Quick list: IC50 per entry.
test readout: IC50 (nM)

[
  {
    "compound structure": "Cc1ccccc1NC(=O)Nc1ccc(CNC(=O)[C@H]2CCN(C(=O)[C@H](CC(=O)O)NC(=O)Cc3ccccc3)C2)cc1",
    "op": "=",
    "assay result": 80
  },
  {
    "compound structure": "Cc1ccccc1NC(=O)Nc1ccc(CC(=O)N2CC[C@H](C(=O)N[C@@H](CC(=O)O)C(=O)OCc3ccccc3)C2)cc1",
    "op": ">",
    "assay result": 100000
  },
  {
    "compound structure": "Cc1ccccc1NC(=O)Nc1ccc(CNC(=O)[C@H]2CCN(C(=O)[C@H](CC(=O)O)NC(=O)c3c(Cl)cccc3Cl)C2)cc1",
    "op": ">",
    "assay result": 100000
  },
  {
    "compound structure": "Cc1ccccc1NC(=O)Nc1ccc(CNC(=O)[C@H]2CCN(C(=O)C[C@H](NC(=O)Cc3ccccc3)C(=O)O)C2)cc1",
    "op": "=",
    "assay result": 93
  },
  {
    "compound structure": "Cc1ccccc1NC(=O)Nc1ccc(CNC(=O)[C@H]2CCN(C(=O)C[C@H](NC(=O)c3c(Cl)cccc3Cl)C(=O)O)C2)cc1",
    "op": ">",
    "assay result": 100000
  }
]

----------
Entries and their measured pIC50 follow.
- target desc: Integrin alpha-V/beta-3 (Homo sapiens, UniProt P05106+P06756)
- Sequence (P05106 27-788 limits assumed): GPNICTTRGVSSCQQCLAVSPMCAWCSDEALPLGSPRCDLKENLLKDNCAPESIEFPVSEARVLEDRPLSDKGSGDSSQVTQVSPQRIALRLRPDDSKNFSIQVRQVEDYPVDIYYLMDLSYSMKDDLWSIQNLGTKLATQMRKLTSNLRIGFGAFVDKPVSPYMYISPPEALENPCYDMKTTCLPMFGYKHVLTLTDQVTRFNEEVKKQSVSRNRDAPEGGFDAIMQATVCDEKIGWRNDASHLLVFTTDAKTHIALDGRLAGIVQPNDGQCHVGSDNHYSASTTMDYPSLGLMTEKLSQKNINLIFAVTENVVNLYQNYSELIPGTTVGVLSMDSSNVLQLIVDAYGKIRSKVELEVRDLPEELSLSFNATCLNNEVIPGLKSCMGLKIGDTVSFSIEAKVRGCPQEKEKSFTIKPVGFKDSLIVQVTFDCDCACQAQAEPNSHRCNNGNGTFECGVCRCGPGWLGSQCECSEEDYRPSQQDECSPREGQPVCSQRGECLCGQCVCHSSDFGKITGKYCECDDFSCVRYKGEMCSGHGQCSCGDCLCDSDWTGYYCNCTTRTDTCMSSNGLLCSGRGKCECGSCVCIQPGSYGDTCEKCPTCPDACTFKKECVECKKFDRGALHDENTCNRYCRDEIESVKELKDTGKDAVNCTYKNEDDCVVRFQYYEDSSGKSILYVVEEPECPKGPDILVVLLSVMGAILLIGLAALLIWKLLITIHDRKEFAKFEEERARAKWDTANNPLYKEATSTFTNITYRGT
- Sequence (P06756 31-889 limits assumed): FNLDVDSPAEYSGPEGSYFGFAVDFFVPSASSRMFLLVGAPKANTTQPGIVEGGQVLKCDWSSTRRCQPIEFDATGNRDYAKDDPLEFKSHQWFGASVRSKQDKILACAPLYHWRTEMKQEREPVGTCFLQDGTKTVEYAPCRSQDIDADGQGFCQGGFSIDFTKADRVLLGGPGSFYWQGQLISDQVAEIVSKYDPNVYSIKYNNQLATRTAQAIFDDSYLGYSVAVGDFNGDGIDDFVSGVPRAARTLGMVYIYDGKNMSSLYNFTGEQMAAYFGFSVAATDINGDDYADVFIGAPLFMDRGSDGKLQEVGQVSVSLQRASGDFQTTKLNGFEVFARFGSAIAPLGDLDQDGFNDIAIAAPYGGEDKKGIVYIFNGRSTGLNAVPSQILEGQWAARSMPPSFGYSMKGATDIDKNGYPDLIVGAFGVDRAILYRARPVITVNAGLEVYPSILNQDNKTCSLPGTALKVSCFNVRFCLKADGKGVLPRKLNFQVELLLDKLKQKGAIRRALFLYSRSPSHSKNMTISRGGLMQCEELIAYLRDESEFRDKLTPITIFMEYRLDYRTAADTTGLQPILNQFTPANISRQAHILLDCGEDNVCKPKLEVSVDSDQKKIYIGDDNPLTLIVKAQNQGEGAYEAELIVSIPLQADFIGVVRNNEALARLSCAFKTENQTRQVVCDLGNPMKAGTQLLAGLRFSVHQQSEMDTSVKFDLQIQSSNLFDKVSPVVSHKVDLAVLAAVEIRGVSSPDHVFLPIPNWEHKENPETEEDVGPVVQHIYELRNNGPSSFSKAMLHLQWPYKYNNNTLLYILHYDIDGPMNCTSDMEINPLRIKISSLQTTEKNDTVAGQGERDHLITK
- Sequence (P06756 891-1048 limits assumed): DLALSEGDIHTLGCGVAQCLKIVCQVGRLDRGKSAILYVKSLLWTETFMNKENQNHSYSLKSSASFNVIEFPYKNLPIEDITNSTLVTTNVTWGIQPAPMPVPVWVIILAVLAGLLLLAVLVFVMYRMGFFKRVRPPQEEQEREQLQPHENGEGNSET
- protocol text: Inhibition of human alphavbeta3 integrin expressed in human SK-MEL-24 cells assessed as inhibition of cell adhesion to vitronectin
pIC50: −log10 of the molar value.
test readout: pIC50

[
  {
    "compound structure": "Cc1ccccc1NC(=O)Nc1ccc(CNC(=O)[C@H]2CCN(C(=O)C[C@H](NC(=O)Cc3ccccc3)C(=O)O)C2)cc1",
    "assay result": "< 4.00"
  },
  {
    "compound structure": "Cc1ccccc1NC(=O)Nc1ccc(CNC(=O)[C@H]2CCN(C(=O)[C@H](CC(=O)O)NC(=O)Cc3ccccc3)C2)cc1",
    "assay result": "< 4.00"
  }
]
